Attribution: patent US8546443B2

Target: cytoplasmic kinase domain of human IGF-1R (IGF-1R-GST) (Homo sapiens, UniProt P08069)
Construct: cytoplasmic kinase domain of human IGF-1R (amino acids 964-1370); GST (glutathione-S-transferase)
Sequence (P08069 964-1367 limits assumed): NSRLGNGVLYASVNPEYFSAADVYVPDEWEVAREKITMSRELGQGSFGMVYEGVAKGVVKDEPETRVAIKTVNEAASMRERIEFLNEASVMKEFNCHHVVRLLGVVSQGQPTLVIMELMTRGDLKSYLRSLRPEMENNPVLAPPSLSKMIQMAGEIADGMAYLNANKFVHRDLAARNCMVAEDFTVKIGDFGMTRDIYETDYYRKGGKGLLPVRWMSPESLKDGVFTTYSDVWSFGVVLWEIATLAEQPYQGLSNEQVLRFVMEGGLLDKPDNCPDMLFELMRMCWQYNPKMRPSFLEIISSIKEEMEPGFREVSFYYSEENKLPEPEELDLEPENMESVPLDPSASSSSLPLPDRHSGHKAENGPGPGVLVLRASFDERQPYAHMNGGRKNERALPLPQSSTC
Assay: Insulin-like growth factor-1 receptor (IGF-1R) kinase assay (DELFIA)
Settings: IGF-1R-GST kinase activity, read-out: IGF1R IC50
Metric: IC50 (nM)

Worked cases, answers included:
Molecule: COc1cc(C2CCN(CC(C)(C)O)CC2)ccc1Nc1ncc(C(F)(F)F)c(NCc2cccc3c2C(C)(C)C(=O)N3)n1
IC50, nM: 0.6
--
Molecule: CCOC(=O)N1CCC(N2CCN(c3ccc(Nc4ncc(C(F)(F)F)c(NCc5cccc6c5CC(=O)N6)n4)c(OC)c3)CC2)CC1
IC50, nM: 11
--
Molecule: Cc1cc(C2CCN(C(=O)N(C)C)CC2)ccc1Nc1ncc(Cl)c(NCc2cccc3c2C(C)(C)C(=O)N3)n1
IC50, nM: 15
--
Molecule: Cc1cc([C@H]2CCCN(CC(C)(C)O)C2)ccc1Nc1ncc(Br)c(NCc2cccc3c2C(C)(C)C(=O)N3)n1
IC50, nM: 2
--
Molecule: Cc1cc(C2CCCN(CCO)C2)ccc1Nc1ncc(Br)c(NCc2cccc3c2C(C)(C)C(=O)N3)n1 (racemic)
IC50, nM: 0.6
--
Molecule: CC1(C)C(=O)Nc2cccc(CNc3nc(Nc4ccc(C5CCN(CCCF)CC5)cc4)ncc3Cl)c21
IC50, nM: 4
--
Molecule: COc1cc(C2CCCN(CC(C)(C)O)C2)ccc1Nc1ncc(C(F)(F)F)c(NCc2cccc3c2C(C)(C)C(=O)N3)n1 (racemic)
IC50, nM: 1.6
--
Molecule: Cc1c(Nc2ncc(Cl)c(NCc3cccc4c3C(C)(C)C(=O)N4)n2)ccc(C2CCN(CC(C)(C)O)CC2)c1C
IC50, nM: 2.1
--
Molecule: COCCN(C)C1CCN(c2ccc(Nc3ncc(C(F)(F)F)c(NCc4cccc5c4C(C)(C)C(=O)N5)n3)c(OC)c2)CC1
IC50, nM: 0.87
--
Molecule: COCCN1CCCC(c2ccc(Nc3ncc(Br)c(NCc4cccc5c4C(C)(C)C(=O)N5)n3)cc2)C1 (racemic)
IC50, nM: 0.7

a: COc1cc(N2CCN(C(=O)C3CCN(C)CC3)CC2)ccc1Nc1ncc(C(F)(F)F)c(NCc2cccc3c2C(C)(C)C(=O)N3)n1
b: COc1cc(N2CCC(N3CCN(C4CC4)CC3)CC2)ccc1Nc1ncc(C(F)(F)F)c(NCc2cccc3c2CC(=O)N3)n1
c: CC(C)(C)OC(=O)N1CCC[C@H]1C(=O)N1CCC(c2ccc(Nc3ncc(Cl)c(NCc4cccc5c4C(C)(C)C(=O)N5)n3)cc2)CC1
d: COc1cc(N2CCN(CC3CC3)CC2)ccc1Nc1ncc(Cl)c(NCc2cccc3c2C(C)(C)C(=O)N3)n1
Please order the records by their reported IC50, lowest number first. Form entry: labels listed in requested order. d, a, b, c
(d: 2 nM, a: 3 nM, b: 6 nM, c: 25 nM)
